Recorded composite z-score by entry
molecular target: Fibroblast growth factor 10 (Homo sapiens) (UniProt O15520); test: FGF10 binders on small-molecule microarrays, primary screen, biochemical, small-molecule microarray, 635 nm fluorescence (AID 1102); settings: FGF10 binding, fluorescence 635 nm, higher = more signal
Sequence (O15520 whole entry, looked up): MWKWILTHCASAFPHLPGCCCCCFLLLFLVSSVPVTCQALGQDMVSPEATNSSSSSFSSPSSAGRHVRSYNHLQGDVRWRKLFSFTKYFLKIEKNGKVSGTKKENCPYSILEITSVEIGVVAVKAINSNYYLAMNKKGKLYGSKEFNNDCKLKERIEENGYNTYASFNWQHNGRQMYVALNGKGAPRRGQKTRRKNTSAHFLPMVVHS

COMPOUND	SYSTEM_UNDER_TEST	composite z-score
COCCOC(=O)N1C(=O)[C@@]2(c3cc(C#CCC(C(=O)OC)C(=O)OC)ccc31)[C@H](c1ccc(OCCO)cc1)N1[C@H](c3ccccc3)[C@H](c3ccccc3)OC(=O)[C@H]1[C@@H]2C(=O)Nc1nc2ccccc2s1	Fibroblast growth factor 10 (Homo sapiens) (UniProt O15520)	0.84
COCCOC(=O)N1C(=O)[C@@]2(c3cc(C#Cc4ccc(OC)cc4)ccc31)[C@H](c1ccc(OCCO)cc1)N1[C@H](c3ccccc3)[C@H](c3ccccc3)OC(=O)[C@H]1[C@@H]2C(=O)Nc1nc2ccccc2s1	Fibroblast growth factor 10 (Homo sapiens) (UniProt O15520)	1.06
[N-]=[N+]=Nc1ccccc1C[C@@]1(C(=O)O)N=C(c2ccc(OCCCO)cc2)O[C@@H]1c1ccccc1N=[N+]=[N-]	Fibroblast growth factor 10 (Homo sapiens) (UniProt O15520)	0.285
COc1ccc(C#Cc2ccc3c(c2)[C@]2(C(=O)N3)[C@H](C(=O)N3CCCCCCC3)[C@H]3C(=O)O[C@H](c4ccccc4)[C@H](c4ccccc4)N3[C@@H]2c2ccc(O)cc2)cc1	Fibroblast growth factor 10 (Homo sapiens) (UniProt O15520)	0.684
COc1ccc(C#Cc2ccc3c(c2)[C@]2(C(=O)N3)[C@H](C(=O)Nc3nc4ccccc4s3)[C@H]3C(=O)O[C@H](c4ccccc4)[C@H](c4ccccc4)N3[C@@H]2c2ccccc2OCCO)cc1	Fibroblast growth factor 10 (Homo sapiens) (UniProt O15520)	0.463

Determine its reported composite z-score: `COCCOC(=O)N1C(=O)[C@@]2(c3cc(C#CCNC(N)=O)ccc31)[C@H](c1ccc(O)cc1)N1[C@H](c3ccccc3)[C@H](c3ccccc3)OC(=O)[C@H]1[C@@H]2C(N)=O`
-1.62

Determine its reported composite z-score: `COC(=O)[C@@]1(Cc2ccccc2)[C@H]2c3cc(C(=O)N(C)C)n(CCn4cc([N+](=O)[O-])nc4C)c3C[C@H]2CN1C(=O)c1ccccc1`
0.937

Determine its reported composite z-score: COC(=O)C1=CC(CCCO)=CC(c2ccc(CN3CCCC3)cc2)N(Cc2cc3c(cc2Br)OCO3)C=C1C(=O)OC (configuration not stated)
1.45

Determine its reported composite z-score: `C=C(/C(=C/C[C@@H](OC(C)=O)c1ccc(CO)o1)c1cc(C(=O)OC)ccc1OC)C(C)C`
1.02

Determine its reported composite z-score: C=CCC(OC(C)=O)[C@@H]1[C@@H](N(Cc2ccc(-c3cccc(C(F)(F)F)c3)o2)C(=O)c2cccc3ccccc23)c2cc(OCCCO)ccc2N1C(=O)Cc1ccc(OC)cc1 (some centres not stated)
0.0525

Determine its reported composite z-score: `C=CC[C@H](OC(=O)Nc1ccc(SC)cc1)c1ccc(OCCO)cc1`
-0.163

Determine its reported composite z-score: `C=CCOC(=O)[C@H]1[C@@H]2C(=O)O[C@@H](c3ccccc3)[C@@H](c3ccccc3)N2[C@@H](c2ccc(OCCOC(=O)[C@H]3C[C@H]4C(=O)N[C@@H](CCCCNC(C)=O)C(=O)N4[C@H]3c3cccc(OCCO)c3)cc2)[C@]12C(=O)Nc1ccc(I)cc12`
1.49

Data origin: PubChem BioAssay
